Target: Env of HIV-1 strain REJO4541.67 (HIV-1)
Experiment: cell-based or functional assay

[
  {
    "binder": "γ22κ5 (antibody, V domains shown) VH: QIHLVQSGTEVKKPGSSVTVSCKAYGVNTFGLYAVNWVRQAPGQSLEYIGQIWRWKSSASHHFRGRVLISAVDLTGPSPPISSLEIKNLTSDDTAVYFCTTTSTYDKWSGLHHDGVMAFSSWGQGTLISVSA VL: DIQMTQSPSTLSASTGDTVRISCRASQSITGNWVAWYQQRPGKAPRLLIYRGAALLGGVPSRFRGSAAGTDFTLTIGNLQAEDFGTFYCQQYDTYPGTFGQGTKVEVKR",
    "unitDescriptor": "µg/mL",
    "neutralization IC50": 0.795
  },
  {
    "binder": "8ANC3044 (antibody, V domains shown) VH: QIHLVQSGTEVRKPGSSVTVSCKAYGVNTFGLYAVNWVRQAPGQSLEYIGQIWRWKSSASHHFRGRVLISAVDLTGSSPPISSLEIKNLTSDDTAVYFCTTTSTYDKWSGLHHDGVMAFSSWGQGTLISVSA VL: DIQMTQSPSTLSASIGDTVRISCRASQSITGNWVAWYQQRPGKAPRLLIYRGAALLGGVPSRFSGSAAGTDFTLTIGNLQTEDFGTFYCQQYDTYPGTFGQGTKVEVKR",
    "unitDescriptor": "µg/mL",
    "neutralization IC50": 0.278
  },
  {
    "binder": "8ANC3040 (antibody, V domains shown) VH: QIHLVQSGTEVKKPGSSVTVSCKAYGVNTFGLYAVNWVRQAPGQSLEYIGQIWRWKSSASHHFRGRVLISAVDLTGSSPPISSLEIKNLTSDDTAVYFCTTTSTYDQWSGLHHDGVMAFSSWGQGTLISVSA VL: DIQMTQSPSTLSASIGDTVRISCRASQSITGNWVAWYQQRPGKAPRLLIYRGAALLGGVPSRFSGSAAGTDFTLTIGNLQAEDFGTFYCQQYDTYPGTFGQGTKVEVKR",
    "unitDescriptor": "µg/mL",
    "neutralization IC50": 0.198
  }
]
